# Test system: NCI-H322M
# assay details: relative viability (nuclei count vs DMSO), 5 days (fraction); higher = more cells survive
# reported conditions: first compound 158.11 µM
measure: relative viability
Enter the number alone.

Known results for compounds:
compound	relative viability
O=C(O)CCCCC(CCSCc1ccccc1)SCc1ccccc1 (stereo unspecified) [CPI-613] + CS(=O)(=O)CCNCc1ccc(-c2ccc3ncnc(Nc4ccc(OCc5cccc(F)c5)c(Cl)c4)c3c2)o1 [Lapatinib] (partner 2 µM)	0.552
O=C(O)CCCCC(CCSCc1ccccc1)SCc1ccccc1 (stereo unspecified) [CPI-613] + Cc1nc(Nc2ncc(C(=O)Nc3c(C)cccc3Cl)s2)cc(N2CCN(CCO)CC2)n1 [Dasatinib] (partner 0.075 µM)	0.23
O=C(O)CCCCC(CCSCc1ccccc1)SCc1ccccc1 (stereo unspecified) [CPI-613] + O=C(CCCCCCC(=O)Nc1ccccc1)NO [Vorinostat] (partner 1 µM)	0.703
O=C(O)CCCCC(CCSCc1ccccc1)SCc1ccccc1 (stereo unspecified) [CPI-613] + Cc1cc(Nc2cc(N3CCN(C)CC3)nc(Sc3ccc(NC(=O)C4CC4)cc3)n2)n[nH]1 [Tozasertib] (partner 0.1 µM)	0.25
O=C(O)CCCCC(CCSCc1ccccc1)SCc1ccccc1 (stereo unspecified) [CPI-613] + C[C@@H](Oc1cc(-c2cnn(C3CCNCC3)c2)cnc1N)c1c(Cl)ccc(F)c1Cl [Crizotinib] (partner 1 µM)	0.996
O=C(O)CCCCC(CCSCc1ccccc1)SCc1ccccc1 (stereo unspecified) [CPI-613] + Nc1nc2[nH]cc(CCc3ccc(C(=O)N[C@@H](CCC(=O)O)C(=O)O)cc3)c2c(=O)[nH]1 [Pemetrexed] (partner 0.2 µM)	0.637
O=C(O)CCCCC(CCSCc1ccccc1)SCc1ccccc1 (stereo unspecified) [CPI-613] + CC(=O)c1c(C)c2cnc(Nc3ccc(N4CCNCC4)cn3)nc2n(C2CCCC2)c1=O [Palbociclib] (partner 0.5 µM)	0.513
O=C(O)CCCCC(CCSCc1ccccc1)SCc1ccccc1 (stereo unspecified) [CPI-613] + N=C(N)NC(=N)NCCc1ccccc1 [Phenformin] (partner 250 µM)	0.693

Fill blank: measured relative viability of the compound O=C(O)CCCCC(CCSCc1ccccc1)SCc1ccccc1 (stereo unspecified) [CPI-613] + NC(=O)Nc1cc(-c2cccc(F)c2)sc1C(=O)N[C@H]1CCCNC1 [AZD7762] (partner 0.2 µM) is ____.
0.638

Fill blank: measured relative viability of the compound O=C(O)CCCCC(CCSCc1ccccc1)SCc1ccccc1 (stereo unspecified) [CPI-613] + CC1(C)CCC(c2ccc(Cl)cc2)=C(CN2CCN(c3ccc(C(=O)NS(=O)(=O)c4ccc(N[C@H](CCN5CCOCC5)CSc5ccccc5)c(S(=O)(=O)C(F)(F)F)c4)cc3)CC2)C1 [Navitoclax] (partner 0.5 µM) is ____.
1.05

Fill blank: measured relative viability of the compound O=C(O)CCCCC(CCSCc1ccccc1)SCc1ccccc1 (stereo unspecified) [CPI-613] + CC(=O)Nc1cccc(-n2c(=O)n(C3CC3)c(=O)c3c(Nc4ccc(I)cc4F)n(C)c(=O)c(C)c32)c1 [Trametinib] (partner 0.02 µM) is ____.
0.516

The reported numbers originate from the supplement of paper PMC10307832.
